Listed substances paired with reported basophils
- assay.notes: Hematology assays in cynomolgus monkeys (Example 45)
- Type: in vivo
- run.conditions: day 8
Note: unit % is implicit; provide only the numeric part.

// solved cases for basophils follow
**Query** Find the recorded basophils belonging to ISIS 417002: MOE gapmer, nucleobases 1275 to 1318 of SEQ ID NO: 1 (Table 8) (antisense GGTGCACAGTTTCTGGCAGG; MOE gapmer, wing and gap sizes not given here) and report it.
**Result** 0.3

**Query** Quick one: basophils of ISIS 416864: MOE gapmer, nucleobases 1275 to 1318 of SEQ ID NO: 1 (Table 8) (antisense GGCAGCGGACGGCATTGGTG; MOE gapmer, wing and gap sizes not given here) ?
**Result** 0.2

**Query** Query: basophils; subject: ISIS 416850: MOE gapmer, nucleobases 1275 to 1318 of SEQ ID NO: 1 (Table 8) (antisense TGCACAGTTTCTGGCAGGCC; MOE gapmer, wing and gap sizes not given here)
**Result** 0.2

**Query** What measured basophils goes with ISIS 416858: MOE gapmer, nucleobases 1275 to 1318 of SEQ ID NO: 1 (Table 8) (antisense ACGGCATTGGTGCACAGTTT; MOE gapmer, wing and gap sizes not given here) ?
**Result** 0.3

Read the next record carefully.
**Query** Given the substance ISIS 416838: MOE gapmer, nucleobases 1018 to 1042 of SEQ ID NO: 1 (Table 6) (antisense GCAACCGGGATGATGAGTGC; MOE gapmer, wing and gap sizes not given here) , what is its reported basophils?
**Result** 0.2

* * *

Recorded Inhibition of Factor 11 protein relative to the PBS control values for a group of substances are listed next.
- Test system: Factor 11 protein
- assay.notes: Factor 11 protein in monkey plasma by sandwich ELISA (Example 45)
- Type: in vivo, cynomolgus monkeys
- run.conditions: day 85; escalating dose regimen; plasma ELISA
- Description: Groups, each consisting of two male and three female monkeys, were injected subcutaneously with ISIS 416838, ISIS 416850, ISIS 416858, ISIS 416864, or ISIS 417002 in escalating doses. […] Body weights were measured weekly. […] The results are presented in Table 115, expressed as percentage reduction relative to that of the PBS control.
Report only the number, with the unit % understood.

**Query** Requested read-out: Inhibition of Factor 11 protein relative to the PBS control. Entry: ISIS 416858: MOE gapmer, nucleobases 1275 to 1318 of SEQ ID NO: 1 (Table 8) (antisense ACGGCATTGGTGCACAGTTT; MOE gapmer, wing and gap sizes not given here)
**Result** 78

Below: the item to evaluate.
**Query** Name the recorded Inhibition of Factor 11 protein relative to the PBS control for ISIS 416850: MOE gapmer, nucleobases 1275 to 1318 of SEQ ID NO: 1 (Table 8) (antisense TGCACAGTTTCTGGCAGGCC; MOE gapmer, wing and gap sizes not given here) .
**Result** 64

* * *

- Tested on: human Factor 11 mRNA
- assay.notes: Dose-dependent inhibition of human Factor 11 in HepB3 cells, electroporation (Example 7)
- Assay type: cell-based
- run.conditions: 123.457 nM, ~16 hours
# percent inhibition of human Factor 11 mRNA relative to untreated control cells listing for each entry below
Please give a number only; it is taken to be in %.

Below, 3 substances whose answers are already recorded.
**Query** What value of percent inhibition of human Factor 11 mRNA relative to untreated control cells has been reported for the following substance? 416925 (antisense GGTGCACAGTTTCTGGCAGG; 3-14-3 gapmer chemistry, further chemistry not given here) [compound 416925]
**Result** 39

**Query** Which percent inhibition of human Factor 11 mRNA relative to untreated control cells is reported for this substance? 417003 (antisense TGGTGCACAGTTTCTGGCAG; 2-13-5 gapmer chemistry, further chemistry not given here) [compound 417003]
**Result** 0

**Query** For the substance 416825 (antisense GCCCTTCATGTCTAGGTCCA; 5-10-5 gapmer, further chemistry not given here) [compound 416825] , what percent inhibition of human Factor 11 mRNA relative to untreated control cells is on record?
**Result** 40

Continuing:
**Query** Param item = 416999 (antisense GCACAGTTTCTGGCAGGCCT; 2-13-5 gapmer chemistry, further chemistry not given here) [compound 416999] ; retrieve measured percent inhibition of human Factor 11 mRNA relative to untreated control cells.
**Result** 45

**Query** # get_value(readout='percent inhibition of human Factor 11 mRNA relative to untreated control cells', item= 416850 (antisense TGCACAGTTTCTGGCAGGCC; 5-10-5 gapmer, further chemistry not given here) [compound 416850] )
**Result** 38

**Query** What value of measured percent inhibition of human Factor 11 mRNA relative to untreated control cells is listed for 416892 (antisense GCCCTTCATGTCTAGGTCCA; 3-14-3 chimeric gapmer, further chemistry not given here) [compound 416892] ?
**Result** 12
